test system: U-251; experiment: NCI tumour cell line growth inhibition, 48 h
Activity calls are given as the source filed them. Cut-off read from the data, not from the text of the source: active = GI50 up to about 1.1 µM and inactive = higher.
Classes used: active, inactive

>>> group_label("C=CC1(NC(=O)c2ccccc2)CCC(C(C)(C)C)CC1 (stereo not given)")
"inactive"
>>> group_label("O=C(COc1ccc2c(=O)cc(-c3ccc(Cl)cc3)oc2c1)N1CCN(c2ccccc2)CC1")
"inactive"
>>> group_label("CCCCCCCCC/C=C1\\CC(CO)(COC(=O)C2CCCCC2)OC1=O (stereo not given)")
"inactive"
>>> group_label("O=c1c(F)cn2c(=O)n1CCCCCCCn1c(=O)c(F)cn(c1=O)CCCCCCC2")
"inactive"
>>> group_label("O=[N+]([O-])c1ccc2c(c1)C1=NN(c3ccccc3)C(c3ccccc3Br)C1CCC2 (stereo not given)")
"inactive"
>>> group_label("c1ccc([I+]c2ccccc2)cc1")
"inactive"
>>> group_label("C[N+](C)([O-])CCCNc1c2ccccc2nc2cccc([N+](=O)[O-])c12")
"active"
>>> group_label("COc1ccc(C2C3=C(COC3=O)OC(C)(C)Oc3cc4c(cc32)OCO4)cc1OC (stereo not given)")
"inactive"
>>> group_label("Cc1ccc(NC(=O)CCc2n[nH]c(=S)o2)cc1")
"inactive"
>>> group_label("CC1(C)CC(=O)C2=C(C1)S/C(=C1/SC3=C(S1)C(=O)CC(C)(C)C3)S2")
"inactive"

====

test system: NCI-H522; assay: NCI tumour cell line growth inhibition, 48 h
Calls of active or inactive are those of the source. No stated cut-off is given here; in the data, active = GI50 up to about 1.1 µM and inactive = higher.
Classes used: active, inactive

>>> group_label("c1ccc(COc2ccc(C[P+](c3ccccc3)(c3ccccc3)c3ccccc3)cc2)cc1")
"active"
>>> group_label("O=C(NCCC1CN(C(=O)OCc2ccccc2)c2ccccc21)OCc1ccccc1 (stereo not given)")
"inactive"
>>> group_label("COc1ccccc1-c1cc(=O)c2ccccc2n1C1CC1")
"active"
>>> group_label("COc1ccc(C2C3=C(COC3=O)OC(C)(C)Oc3cc4c(cc32)OCO4)cc1OC (stereo not given)")
"inactive"
>>> group_label("CC1(Br)CC2OC3(Br)C=CC(C)(O)C2(CC1=O)C3(C)C (stereo not given)")
"inactive"
>>> group_label("CCCCN(Cc1ccccc1)/C(=N/C#N)N(Cc1ccccc1)Cc1ccccc1")
"inactive"
>>> group_label("CC(C)(C)OC(=O)CCCCCNC(=O)CCCCCNC(=O)CCC(CN(CC(=O)OCc1ccccc1)CC(=O)OCc1ccccc1)N(CC(=O)OCc1ccccc1)CC(=O)OCc1ccccc1 (stereo not given)")
"inactive"
>>> group_label("Sc1nn2c(COc3cccc(OCc4nnc5sc(S)nn45)c3)nnc2s1")
"inactive"
>>> group_label("OCCNc1ncnc2[nH]cnc12")
"inactive"
>>> group_label("CCOC(=O)c1sc2nc(SC)nc(Nc3ccc(OC)c(OC)c3)c2c1N")
"inactive"

====

tested on: KM12; experiment: NCI tumour cell line growth inhibition, 48 h
The source made the active and inactive calls. Rule as the data show it: active = GI50 up to about 1.1 µM and inactive = higher.
Quick reference for GI50 among some molecules
Observed property: GI50

>>> value_observed("O=c1nc2ccc3sc4ccccc4c(=O)c3n2c(=O)[nH]1")
"> 100 µM (inactive)"
>>> value_observed("COC(=O)C(NC(=O)c1ccccc1)c1ccco1 (stereo not given)")
"> 100 µM (inactive)"
>>> value_observed("C/C(=N/NC(=S)Nc1cccc(Cl)c1)c1cccc(/C(C)=N\\NC(=S)Nc2cccc(Cl)c2)n1")
"3.52 µM (inactive)"
>>> value_observed("C1=C2SSC3=CC=C(SSc4ccc(s4)SSC4=CC=C(SSC(=C1)S2)S4)S3")
"> 100 µM (inactive)"
>>> value_observed("N#CC(C#N)=C(N)/C(C#N)=C/c1cc(O)c(O)c(Br)c1")
"75.9 µM (inactive)"
>>> value_observed("CCOc1cc2c(cc1OC(C)=O)C(=O)CC[C@H]1C3CC[C@H](OC(C)=O)[C@@]3(C)CC[C@H]21 (stereo not given in full)")
"> 100 µM (inactive)"
>>> value_observed("c1ccc([P+](CCNCCNCC[P+](c2ccccc2)(c2ccccc2)c2ccccc2)(c2ccccc2)c2ccccc2)cc1")
"> 100 µM (inactive)"
>>> value_observed("C=C1C(=O)OC2CC3(CO3)C3C(O)C(O)CC3(C)CC12 (stereo not given)")
"32.9 µM (inactive)"
>>> value_observed("O=C(CC(=O)c1cccc2ccccc12)C(=O)NC1C2CC3CC(C2)CC1C3 (stereo not given)")
"> 100 µM (inactive)"
>>> value_observed("CCCCCCCCC/C=C1\\CC(CO)(COC(=O)C2CCCCC2)OC1=O (stereo not given)")
"20.4 µM (inactive)"

====

tested on: SF-295; experiment: NCI tumour cell line growth inhibition, 48 h
Activity calls are given as the source filed them. Cut-off read from the data, not from the text of the source: active = GI50 up to about 1.1 µM and inactive = higher.
Observed property: GI50

>>> value_observed("OC12CCCCCC1(N1CCOCC1)c1ccccc12 (configuration not stated)")
"> 100 µM (inactive)"
>>> value_observed("CN(C)CC/C(=N\\Nc1ccc(Cl)cc1Cl)c1ccccc1")
"18.5 µM (inactive)"
>>> value_observed("CC(C)(C)OC(=O)CCC1NC(=O)[C@@H]2Cc3c([nH]c4ccccc34)C(C3CCCCC3)N2C1=O (some centres not stated)")
"23.1 µM (inactive)"
>>> value_observed("Cc1ccc(S(=O)(=O)N(CC(O)COc2ccccc2)c2c(F)c(F)cc(F)c2F)cc1 (configuration not stated)")
"24 µM (inactive)"
>>> value_observed("CN(C=O)/C=C/c1cc(O)ccc1O")
"32.5 µM (inactive)"
>>> value_observed("C=C(Cl)C(Cl)(CBr)CCC(Br)C(C)(C)Br (configuration not stated)")
"2 µM (inactive)"
>>> value_observed("COC(=O)C(CBr)CBr")
"16.2 µM (inactive)"
>>> value_observed("O=[N+]([O-])c1ccc2c(c1)C1=NN(c3ccccc3)C(c3ccccc3Br)C1CCC2 (configuration not stated)")
"17.9 µM (inactive)"
>>> value_observed("COC(CC1(OC)OC(=O)C=C1N)OC (configuration not stated)")
"> 100 µM (inactive)"
>>> value_observed("COc1ccc2c(=O)c3c([nH]c2c1)OCC3=O")
"> 100 µM (inactive)"
>>> value_observed("COC(NC(=O)Nc1ccccc1C)(C(F)(F)F)C(F)(F)F")
"> 100 µM (inactive)"
>>> value_observed("COc1cc(C=O)c(-c2cc3c(cc2C2(C)OCCS2)OCO3)c(OC)c1OC (configuration not stated)")
"13.3 µM (inactive)"

====

test system: NCI-H226; assay: NCI tumour cell line growth inhibition, 48 h
Activity calls are given as the source filed them. Cut-off read from the data, not from the text of the source: active = GI50 up to about 1.1 µM and inactive = higher.
Classes used: label 1 = active, label 0 = inactive

>>> group_label("C=C1C(=O)OC2CC(C)C3CC(O)OC(OCC)C3(C)CC12 (stereo unspecified)")
"label 0"
>>> group_label("COc1ccc(C(=O)N(C(=O)N2CCN(c3ccccc3)CC2)S(=O)(=O)c2ccccc2)cc1")
"label 0"
>>> group_label("COC(=O)C(NC(=O)c1ccccc1)c1ccco1 (stereo unspecified)")
"label 0"
>>> group_label("CN(C)Cc1cc(/N=N/c2ccc(Cl)cc2)cc(CN(C)C)c1O")
"label 0"
>>> group_label("[N-]=[N+]=C1C(=O)c2ccccc2-c2ccccc21")
"label 0"
>>> group_label("COc1ccc(N[C@H](C[S+]([O-])c2ccc(C)cc2)C(F)(F)F)cc1 (stereo partly specified)")
"label 0"
>>> group_label("N#CC(C#N)=C(N)/C(C#N)=C/c1cc(O)c(O)c(Br)c1")
"label 0"
>>> group_label("c1ccc2c(c1)nnn2C1CCCCO1 (stereo unspecified)")
"label 0"
>>> group_label("Cc1ccc(C2(O)CC(c3ccc([N+](=O)[O-])o3)=NN2C(=O)COc2ccc(Cl)cc2)cc1 (stereo unspecified)")
"label 0"
>>> group_label("CC(=O)CNC(=O)OC(C)(C)C")
"label 0"
>>> group_label("Cc1nc2ccccc2c(=O)n1/N=C(\\N=N\\c1cc(Cl)ccc1Cl)c1ccccc1")
"label 0"
>>> group_label("N/N=C(/CC(O)(C(F)(F)F)C(F)(F)F)c1ccccc1")
"label 0"
>>> group_label("O=[N+]([O-])c1ccc(-n2nnc(C3=NCCCN3)c2-c2ccc(Cl)cc2)cc1")
"label 0"
>>> group_label("Cc1nn(C(=O)c2ccc(Cl)cc2)c2c1C(c1ccccc1[N+](=O)[O-])SC(=N)N2 (stereo unspecified)")
"label 0"
>>> group_label("CCOC(=O)c1cc(-c2ccc(OC)cc2)c([N+](=O)[O-])[nH]1")
"label 0"
>>> group_label("CC(=O)OCC1=C(C)C[C@H]([C@@H](COC(C)=O)C2CCC3C4C[C@H]5O[C@]56CC=CC(=O)[C@]6(C)C4CC[C@@]32C)OC1=O (stereo partly specified)")
"label 1"
>>> group_label("COC(=O)/C=C1\\CCC(C)(C(=O)NS(=O)(=O)c2ccc(C)cc2)C1(C)C (stereo unspecified)")
"label 0"
>>> group_label("C1OC1CO[C@@H]1CO[C@H]2[C@@H]1OC[C@H]2OCC1CO1 (stereo partly specified)")
"label 0"
>>> group_label("COC(CC1(OC)OC(=O)C=C1N)OC (stereo unspecified)")
"label 0"
>>> group_label("COc1cc2c(c(OC)c1OC)-c1ccc(SC)c(=O)cc1[C@@H](NC(=O)c1cccc([N+](=O)[O-])c1)CC2")
"label 1"
>>> group_label("Fc1cc(-c2cc(-c3ccc4c(c3)OCO4)n[nH]2)c(Cl)cc1Cl")
"label 0"
>>> group_label("O=C([C@H](O)[C@@H](O)c1ccc(Br)cc1)C12CC3CC(CC(C3)C1)C2")
"label 0"
>>> group_label("O=c1cc(-c2cccnc2)[nH]c2cc3c(cc12)OCO3")
"label 0"
>>> group_label("COC1=CC(=O)C2=C(C1=O)[C@H]1CC[C@]3(C)[C@@H](OC(C)=O)CC[C@H]3[C@@H]1CC2")
"label 0"
>>> group_label("COc1ccc(C2C3=C(COC3=O)OC(C)(C)Oc3cc4c(cc32)OCO4)cc1OC (stereo unspecified)")
"label 0"
>>> group_label("COC(=O)C(C)(NC(=O)C(CC(=O)OC(C)(C)C)NC(=O)OC(C)(C)C)c1ccccc1 (stereo unspecified)")
"label 0"
>>> group_label("CSCSCC(N)CO.Cc1[nH]c(=O)[nH]c(=O)c1/C=C/C(=O)O")
"label 0"
>>> group_label("CCOC(=O)C[n+]1ccc2c([nH]c3cc(OC)ccc32)c1C")
"label 0"
>>> group_label("Cc1c(CCCl)c(N=[N+]=[N-])n2c(nc3ccccc32)c1C#N")
"label 0"
>>> group_label("C[C@H](N)C(=O)Nc1ccc(-c2nc3ccccc3s2)cc1Cl")
"label 1"
>>> group_label("COC(=O)C1=C(C)N(NC(N)=O)C2(N)N(NC(N)=O)C(C)=C(C(=O)OC)C12C(=O)OC (stereo unspecified)")
"label 0"
>>> group_label("N#CCCCCCOCCOCCOCCOCCOCCCCCC#N")
"label 0"
>>> group_label("Nn1c(SCC(=O)O)nc2ccccc2c1=O")
"label 0"
>>> group_label("Cc1ccc([S+]([O-])c2cccs2)cc1 (stereo unspecified)")
"label 0"
>>> group_label("COC(=O)[C@H]1C=C[C@@H](C)n2c(=O)c3ccccc3c(=O)n21")
"label 0"
>>> group_label("CC(C)(C)c1cc(C2COC(=O)COCCOCC(=O)OCCOCCO2)cc(C(C)(C)C)c1O (stereo unspecified)")
"label 0"
>>> group_label("c1ccc(COc2ccc(C[P+](c3ccccc3)(c3ccccc3)c3ccccc3)cc2)cc1")
"label 1"
>>> group_label("O=C1C2C(C(=O)N1O)N(Cc1ccccc1)C(=O)N2Cc1ccccc1 (stereo unspecified)")
"label 0"
>>> group_label("C[N+]1=C2[B-](C(C)(C)C)=[N+](C(C)(C)C)[B-]2(C(C)(C)C)[N+](C)=C2[B-](C(C)(C)C)=[N+](C(C)(C)C)[B-]21C(C)(C)C (stereo unspecified)")
"label 0"
>>> group_label("CC(/C=N/N(C)C1=NCCCCN1)=N/N(C)C1=NCCCCN1")
"label 0"
>>> group_label("C/C(=N\\Nc1nc2cc(F)ccc2s1)c1ccccn1")
"label 1"

Where these numbers come from: ChEMBL document CHEMBL1201862
